- System: RXF 393 renal
- ASSAY_INFO: NCI-60 one-dose screen, 48 h
- CONDITION_SET: 10 µM unless noted
About 83,000 compounds went through this panel and 20% of them were active in at least one assay; those are over-represented in the sample as a whole. Active and inactive are the calls of the source. Rule for the calls: active = growth percent below 10; inactive = the rest.
Outcome (select one): active, inactive

In this assay, the call recorded for COc1cc(CNS(=O)(=O)c2ccc(C)cc2)ccc1OCc1cn(-c2ccc(Br)cc2)nn1 was what? inactive

Same for CCOC(=O)c1c(NC(=O)c2ccc(C(C)C)cc2)sc2c(CN(C)C)c(O)ccc12 inactive

Entry N=C(N)c1ccc(-c2ccc(-c3cc(Cl)cc(Cl)c3)o2)o1 please active

###

Below is a list of entries, each paired with its recorded growth value.
- Test system: LOX IMVI melanoma
- ASSAY_INFO: NCI-60 one-dose screen, 48 h (100 = growth as untreated, 0 = no growth, -100 = all killed)
- CONDITION_SET: 10 µM unless noted
The panel holds about 83,000 compounds, 20% with a hit somewhere; the sample as a whole holds those more often. Calls of active or inactive are those of the source. Rule for the calls: active = growth percent below 10; inactive = the rest.

1. Nc1nc(=S)c2ncn(C3OC(COP(=O)(O)O)C(O)C3O)c2[nH]1 (stereo not drawn) | 3.07% (active)
2. COc1ccc(NC(=O)c2sc3nc(C)c(C(=O)/C=C/c4cccc(OC)c4)cc3c2N)cc1 | -73.1% (active)
3. CC1=Nc2cnc(Nc3ccc(OCCN4CCCC4)cc3)nc2Nc2ccccc21 | 52.2% (inactive)
4. COc1cc(-c2nc3cc(Cl)c(Cl)cc3[nH]2)ccc1OCC(=O)N=Nc1c(O)[nH]c2ccc([N+](=O)[O-])cc12 | 78.7% (inactive)
5. COCCn1c(-c2csc(-c3cn(C)c4ccc(OC)cc34)n2)cc2cccnc21 | -22.6% (active)

Quick one: growth for O=S(=O)(NCCNc1nccc(-c2c(-c3cccc(F)c3)nc3occn23)n1)c1ccc(Br)cc1 ? 75.9% (inactive)

Oc1c(Cl)cc(Cl)c2ccc(Cn3cc(-c4ccc(C(F)(F)F)cc4)nn3)nc12 ? 9.23% (active)

Input c1ccc(C2=NN[C@H](c3cn(-c4ccccc4)nc3-c3ccccc3)C2)cc1 24.4% (inactive)

Proceed to C#CCOc1ccc2ncnc(Nc3ccc(NC(=O)CCl)cc3)c2c1 -80.1% (active)

Also check CCCCCCC1(C)NCCO1 (stereo not drawn) 103% (inactive)

Next compound: CCn1c(SCC(=O)c2ccc(Br)cc2)nnc1-c1ccncc1 101% (inactive)

Next compound up: CCCCOC(=O)OCc1cc(=O)c(O)co1 99.9% (inactive)

Let us now turn to COC(=O)c1n[nH]c2ccc3nc(-c4cn[nH]c4C(F)(F)F)c4c(c3c12)CCCC4 21.7% (inactive)

// same read-out, input: Cc1cnc(C(=O)NNc2nc3sc4c(c3c(=O)n2C)C(C)CCC4)cn1 (stereo not drawn) -17.5% (active)

###

Attribute: growth
- Tested on: SF-268 CNS
- ASSAY_INFO: NCI-60 one-dose screen, 48 h (100 = growth as untreated, 0 = no growth, -100 = all killed)
- CONDITION_SET: 10 µM unless noted
About 83,000 compounds went through this panel and 20% of them were active in at least one assay; those are over-represented in the sample as a whole.
// note: answer is a bare numeric in %

1. O=C1/C(=C/c2ccccc2Br)COc2ccc(O)c(O)c21 | 10.9

What value of growth has been recorded for this entry: O=C1c2cccnc2C(=O)c2c1c(C(=O)NCCCN1CCCCC1)c1ccccn21 -13

Repeat for the following compound: CCNc1nc(-c2ccc(Cl)c(OC)c2)c(-c2ccnc(NCCCNS(=O)(=O)c3ccc(Cl)cc3)n2)s1 60.4

Please answer likewise for O=C1C(Cl)=C(Nc2ccc(O)cc2)C(=O)N1Cc1ccc(Cl)cc1 57.5

Repeat with O=C(CSc1nc(-c2ccccc2)[nH]c1S(=O)(=O)c1ccccc1)NC1CC1 102

Another compound: CC(=O)c1cc(O)c2ccccc2c1O 124

###

- System: NCI/ADR-RES ovarian
- ASSAY_INFO: NCI-60 one-dose screen, 48 h (100 = growth as untreated, 0 = no growth, -100 = all killed)
- CONDITION_SET: 10 µM unless noted
- Experimental: Growth inhibition of the NCI/ADR-RES human […] tumor cell line is measured as a screen for anti-cancer activity. Cells are grown in 96 well plates and exposed to the test compound for 48 hours. Compounds are tested at a single concentration, which is 10^-5 M for most compounds. The reported endpoint is percent growth (GI% or GIPRCNT), where numbers from 0 - 100% represent growth inhibition, and numbers from -100% - 0 represent cell death. For example, a value of 40 represents 60% growth inhibition. […]
This is part of a sample that, as a whole, favours compounds with a hit. Of some 83,000 tested, about 20% had one in any assay.
QUANTITY: growth (%)
Your answer is read as %, so omit the unit and give the number.

1) CCN(CC)c1ccc(/C=C/C(=O)c2ccc(Nc3nc(Nc4ccccc4)nc(Nc4ccccc4)n3)cc2)cc1 | 39.1

// returns reported growth for input O=C1NC(=O)c2c1c1c3ccccc3ccc1c1[nH]c3ccc(Br)cc3c21 3.52

Ok, now CCCCCC(=O)OCC(=O)O[C@@H]1C[C@]2(C(C)C)O[C@@]1(C)[C@@H]1CC[C@@H](C)[C@H]1[C@@H]2OC(=O)/C=C/c1ccccc1 21.7

Next record, please: N#CC1C=CN(CC(N)=O)c2ccc3cccnc3c21 (stereo not drawn) 105

// next record COc1ccc(C(=O)Nc2cccc(C3CC(=O)c4c(cc(OC)c(OC)c4OC)O3)c2)cc1 (stereo not drawn) 8.74

One more compound: COc1ccc2nc3ccc(OC)cc3c(SCCCN)c2c1 86.9

###

- Tested on: MOLT-4 leukemia
- ASSAY_INFO: NCI-60 one-dose screen, 48 h (100 = growth as untreated, 0 = no growth, -100 = all killed)
- CONDITION_SET: 10 µM unless noted
The panel holds about 83,000 compounds, 20% with a hit somewhere; the sample as a whole holds those more often. The source made the active and inactive calls. The calls were made as follows: active = growth percent below 10; inactive = the rest.
QUANTITY: growth

1) Oc1c(Cl)cc(Cl)cc1/C=N/Nc1nnc(N/N=C/c2cc(Cl)cc(Cl)c2O)c2ccccc12 | 5.23% (active)
2) CCCCCCCCCCCCCCCC(N)c1ccccc1 (configuration not stated) | -38.6% (active)
3) CSc1nc2sc3c(c2c(=O)n1-c1ccc([N+](=O)[O-])cc1)CCCCC3 | 93.3% (inactive)
4) O=C1/C(=C/c2ccc(Cl)cc2)COc2ccc(O)c(O)c21 | 3.43% (active)

Entry CC(C)CCC[C@@H](C)[C@H]1CC[C@H]2[C@@H]3CC=C4C[C@@H](C(C(=O)O)C(=O)O)CC[C@]4(C)[C@H]3CC[C@]12C has what growth? -56.2% (active)

Moving on to the next molecule: Cc1nn(-c2ccccc2)c(Oc2ccccn2)c1-c1nc2ccccc2s1 -49.2% (active)

How about Cn1cccc1C(=O)C1C(c2cccc([N+](=O)[O-])c2)C2C3CCCCC3CN2C12C(=O)Nc1ccc(Cl)cc12 (configuration not stated) ? 28% (inactive)

Likewise for CO[C@]12C=C/C(=C(/C(=O)OCc3cccnc3)C(=O)CCCCCCCC[C@@]3(OC)C=C/C(=C(/C(=O)OCc4cccnc4)C(=O)CCCCCCCC1)O3)O2 ? -2.22% (active)

Entry CCCCCCCCn1ccc2cc(NC(=O)CN3CCN(c4nc(C)cc(Cl)n4)CC3)ccc21 please 4.97% (active)

###

- Tested on: A498 renal
- ASSAY_INFO: NCI-60 one-dose screen, 48 h (100 = growth as untreated, 0 = no growth, -100 = all killed)
- CONDITION_SET: 10 µM unless noted
This is part of a sample that, as a whole, favours compounds with a hit. Of some 83,000 tested, about 20% had one in any assay.
QUANTITY: growth (%)
State just the number; it will be interpreted in %.

1) C=CCc1c(O)c(C(=O)/C=C/c2ccc(Cl)cc2)c(OC)c2ccoc12 | 46.9
2) C#CCOc1cccc(Nc2ncnc3ccc(NC(=O)CCl)cc23)c1 | -2.12
3) COc1cc(-c2cc(-c3cccs3)c(C#N)c(N3CCOCC3)n2)cc(OC)c1OC | 66.4
4) CN[C@]12CC3(C=CC(=O)C=C3)O[C@@]1(Cc1ccc(OC)cc1)N(C)C(=O)N2 | 97
5) C=C(CNCCc1ccc(O)cc1)[C@@H]1CC[C@]2(CO)CC[C@]3(C)[C@H](CC[C@@H]4[C@@]5(C)CCC(NCCO)C(C)(C)[C@@H]5CC[C@]43C)[C@@H]12 (some centres undefined) | 69.3

May I ask what growth has been recorded for Cc1cccc(N2CCN(CC(O)COc3ccc(Cl)cc3)CC2)c1 (centres undefined) ? 115

Repeat for the following compound: N#CC1CCc2c(c(-c3cn[nH]c3C(F)(F)F)nc3c(F)cc4[nH]ncc4c23)C1 (centres undefined) -23.3

What about OB(O)c1cccc(-c2nc3ccc4[nH]ncc4c3c3c2CCCC3)c1 ? 15.2

Thanks! And Cc1cccnc1NC(=S)Nc1ncccc1C ? 115

And O=C(O)[C@@H]1c2ccccc2-c2ccccc2[C@H]1C(=O)O ? 96.6

Repeat for the following compound: COc1ccc(-c2nc3c(c(-c4ccccc4)nn3-c3ccccc3)c(-c3ccc(N4CCN(C)CC4)cc3)c2C#N)cc1 99.6

Field entry: Fc1cc2c(cc1Cl)N(c1ncnc3ccc(-c4cnc5[nH]ncc5c4)cc13)CC2 -6.52
